- Target system: human Orexin-2 receptor (Homo sapiens)
- Construct: expressed in transfected cells; host or cells: HEK293 cells (transient transfection, Genejuice); membranes
- Sequence (O43614 whole entry): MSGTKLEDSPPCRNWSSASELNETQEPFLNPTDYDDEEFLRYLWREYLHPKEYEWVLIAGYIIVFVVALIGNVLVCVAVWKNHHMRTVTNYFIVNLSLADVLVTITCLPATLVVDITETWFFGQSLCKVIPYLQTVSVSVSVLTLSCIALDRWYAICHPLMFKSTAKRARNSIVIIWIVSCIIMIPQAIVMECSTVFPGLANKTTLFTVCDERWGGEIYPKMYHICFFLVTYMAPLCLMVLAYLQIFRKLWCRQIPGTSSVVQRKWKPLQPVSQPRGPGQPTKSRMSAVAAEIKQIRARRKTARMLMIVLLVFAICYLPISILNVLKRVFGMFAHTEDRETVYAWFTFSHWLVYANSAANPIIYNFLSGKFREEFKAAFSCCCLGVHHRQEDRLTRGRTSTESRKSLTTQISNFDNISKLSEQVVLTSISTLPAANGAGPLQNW
- Measurement description: 3H-EMPA radioligand binding assay
- Cond: 3H-EMPA displacement, membranes of HEK293 cells transfected with human Orexin-2 receptor; KI by Cheng-Prussoff; read-out: OX2 pKi ave (converted)
Parameter measured: log10 Ki (log10 of the value in nM)
Would you kindly interpret these values as log10 of Ki expressed in nM?

**Query** Entry CNc1cc(N2C(=O)N(Cc3c(F)cc(OC)cc3F)c3ncccc3S2(=O)=O)cnc1OC [Example 186] has what log10 Ki?
**Result** 0.10

**Query** # repeat for COc1ccc(N2C(=O)N(Cc3ncc(C)cc3C)c3ccccc3S2(=O)=O)cc1OC [Example 86]
**Result** 1.87

**Query** # repeat for COc1ccc(N2C(=O)N(Cc3c(F)cncc3F)c3ccccc3S2(=O)=O)cc1OC [Example 85]
**Result** 1.78

**Query** # repeat for COc1cc(F)c(CN2C(=O)N(c3ccc(OC)nc3)S(=O)(=O)c3ccccc32)c(Cl)c1 [Example 154]
**Result** 0.48

**Query** # repeat for COc1cc(F)c(CN2C(=O)N(c3ccc4ncsc4c3)S(=O)(=O)c3cccnc32)c(F)c1 [Example 182]
**Result** 0.65

**Query** # repeat for Cc1cc(CN2C(=O)N(Cc3ccc(Cl)cc3F)c3ccccc3S2(=O)=O)n(C)n1 [Example 134]
**Result** 1.60

**Query** # repeat for CNc1ncc(N2C(=O)N(Cc3c(F)cc(OC)cc3F)c3ncccc3S2(=O)=O)cc1OC [Example 177]
**Result** 0.34

**Query** # repeat for COc1cc(N2C(=O)N(Cc3c(F)cccc3Cl)c3ccccc3S2(=O)=O)ccn1 [Example 143]
**Result** 1.20

**Query** # repeat for Cc1ccc(N2C(=O)N(Cc3c(F)cccc3Cl)c3ccccc3S2(=O)=O)cn1 [Example 142]
**Result** 1.47

**Query** # repeat for Cc1cc(C)cc(N2C(=O)N(Cc3c(F)cc(F)cc3F)c3ncccc3S2(=O)=O)c1 [Example 103]
**Result** 0.63

**Query** # repeat for COc1cccc(CCN2C(=O)N(Cc3c(F)cccc3F)c3ccccc3S2(=O)=O)c1 [Example 66]
**Result** 2.74

**Query** # repeat for COc1ccc(N2C(=O)N(Cc3c(F)cccc3Cl)c3ccccc3S2(=O)=O)cn1 [Example 122]
**Result** 1.22

**Query** # repeat for CSc1cccc(N2C(=O)N(Cc3ncccc3C)c3ccccc3S2(=O)=O)c1 [Example 87]
**Result** 1.55

**Query** # repeat for Cc1ccc(N2C(=O)N(Cc3c(F)cccc3Cl)c3ccccc3S2(=O)=O)cc1F [Example 43]
**Result** 0.67

**Query** # repeat for CCc1cccc(N2C(=O)N(Cc3ccc(OC)c(F)c3)c3ccccc3S2(=O)=O)c1 [Example 11]
**Result** 1.68

**Query** # repeat for COc1cccc(N2C(=O)N(Cc3ccc(OC)c(F)c3)c3ccccc3S2(=O)=O)c1 [Example 10]
**Result** 2.07

**Query** # repeat for COc1cc(N2C(=O)N(Cc3c(F)cc(F)cc3F)c3ccccc3S2(=O)=O)cnc1OC [Example 145]
**Result** 0.67

**Query** # repeat for CNc1ccc(N2C(=O)N(Cc3c(F)cc(F)cc3F)c3ncccc3S2(=O)=O)nc1OC [Example 172]
**Result** 0.89

**Query** # repeat for COc1cc(N2C(=O)N(Cc3c(F)cc(F)cc3F)c3ncccc3S2(=O)=O)cnc1C [Example 176]
**Result** 0.81

**Query** # repeat for COc1ccc(N2C(=O)N(Cc3c(F)cccc3Cl)c3ncccc3S2(=O)=O)cc1OC [Example 94]
**Result** -0.11

**Query** # repeat for COc1cccc(CN2C(=O)N(c3cc(OC)cc(OC)c3)S(=O)(=O)c3ccccc32)c1 [Example 3]
**Result** 2.65

**Query** # repeat for O=C1N(Cc2ccccc2Cl)c2ccccc2S(=O)(=O)N1Cc1ccccc1 [Example 58]
**Result** 2.97

**Query** # repeat for COc1cc(F)c(CN2C(=O)N(c3cccc(S(C)(=O)=O)c3)S(=O)(=O)c3ccccc32)c(F)c1 [Example 111]
**Result** 0.35

**Query** # repeat for CN(C)c1cccc(N2C(=O)N(Cc3c(F)cc(F)cc3F)c3ccccc3S2(=O)=O)n1 [Example 158]
**Result** 0.53

**Query** # repeat for CN(C)c1cc(N2C(=O)N(Cc3c(F)cc(F)cc3F)c3ccccc3S2(=O)=O)ccn1 [Example 159]
**Result** 0.49

**Query** # repeat for COc1ccc(N2C(=O)N(Cc3c(F)cc(C)cc3Cl)c3ccccc3S2(=O)=O)cc1OC [Example 106]
**Result** -0.13

**Query** # repeat for COC(=O)c1ccc(OC)c(CN2C(=O)N(c3cccc(SC)c3)S(=O)(=O)c3ccccc32)c1 [Example 52]
**Result** 0.42

**Query** # repeat for CNc1cc(N2C(=O)N(Cc3c(F)cc(OC)cc3F)c3ccccc3S2(=O)=O)cnc1OC [Example 181]
**Result** 0.21

**Query** # repeat for COc1ccc(N2C(=O)N(Cc3c(F)cc(F)cc3OC)c3ccccc3S2(=O)=O)cc1OC [Example 104]
**Result** 0.85

**Query** # repeat for CSc1cncc(N2C(=O)N(Cc3c(F)cccc3Cl)c3ccccc3S2(=O)=O)c1 [Example 151]
**Result** 0.30

**Query** # repeat for COc1cc(F)c(CN2C(=O)N(c3ccc(OC)c(OC)n3)S(=O)(=O)c3ccccc32)c(F)c1 [Example 153]
**Result** -0.65

**Query** # repeat for CSc1cccc(N2C(=O)N(Cc3c(F)cccc3Cl)c3cc(F)ccc3S2(=O)=O)c1 [Example 76]
**Result** 1.17
